# Tested on: Haemophilus influenzae
# procedure-details: Antimicrobial activity against Haemophilus influenzae strains that are normal flora
# Format: functional
recorded-endpoint: MIC50 (mg/L)
Write it as a number; the unit mg/L goes unstated.

[[record]]
compound = "CO/N=C(\\C(=O)N[C@@H]1C(=O)N2C(C(=O)O)=C(COC(N)=O)CS[C@H]12)c1ccco1"
number = 0.5

[[record]]
compound = "CC[C@H]1OC(=O)[C@H](C)[C@@H](O[C@H]2C[C@@](C)(OC)[C@@H](O)[C@H](C)O2)[C@H](C)[C@@H](O[C@@H]2O[C@H](C)C[C@H](N(C)C)[C@H]2O)[C@](C)(OC)C[C@@H](C)C(=O)[C@H](C)[C@@H](O)[C@]1(C)O"
number = 16

[[record]]
compound = "N[C@@H](C(=O)N[C@@H]1C(=O)N2C(C(=O)O)=C(Cl)CS[C@H]12)c1ccccc1 [CEFACLOR ANHYDROUS]"
number = 2


Would you kindly look at the next entry?
Exam item: May I ask what MIC50 has been recorded for O=C(N[C@H](CO)[C@H](O)c1ccc([N+](=O)[O-])cc1)C(Cl)Cl ?
Marked response: 0.75

---

# System: Haemophilus influenzae
# procedure-details: Antimicrobial activity against Haemophilus influenzae strains that are normal flora
# Format: functional
Parameter MIC50: see the listing below.

[[record]]
smiles_text = "CC1(C)S[C@@H]2[C@H](NC(=O)[C@H](N)c3ccccc3)C(=O)N2[C@H]1C(=O)O"
result = "0.38 µg/mL"


Exam item: Item C[C@H]1COc2c(N3CCN(C)CC3)c(F)cc3c(=O)c(C(=O)O)cn1c23.C[C@H]1COc2c(N3CCN(C)CC3)c(F)cc3c(=O)c(C(=O)O)cn1c23.O has what recorded MIC50?
Marked response: 0.023 µg/mL

Exam item: Quick one: MIC50 of C[C@@H](O)[C@H]1C(=O)N2C(C(=O)O)=C(S[C@@H]3CN[C@H](C(=O)N(C)C)C3)[C@H](C)[C@H]12 ?
Marked response: 0.094 µg/mL

Exam item: Return reported MIC50; argument: C=CC1=C(C(=O)O)N2C(=O)[C@@H](NC(=O)/C(=N\OCC(=O)O)c3csc(N)n3)[C@H]2SC1
Marked response: 0.047 µg/mL
